- measuredOn: T1, human PCSK9 (proprotein convertase subtilisin kexin type 9) (human, UniProt Q8NBP7 31-692)
- T1 construct: Directly immobilized (SPR ProteOn), biotinylated (BLI), or in solution, depending on the assay; also called hPCSK9
- measurementProtocol: BLI, biotinylated hPCSK9 on sensor tips
Items are presented alongside their recorded Kd.
Please reply with the bare figure in nM and do not write the unit itself.

Some entries whose results are on file:
So what's the measured Kd for this one? 2382D09 (designed binder, Anti-PCSK9 Adnectin, His6-tagged) MGVSDVPRDLEVVAATPTSLLISWDAPAEGYGYYRITYGETGGNSPVQEFTVPVSKGTATISGLKPGVDYTITVYAVEFDFPGAGYYHRPISINYRTEIDKPSQHHHHHH
0.304

Also check ATI001168 (designed binder) MGVSDVPRDLEVVAATPTSLLISWEPPSHAYGYYRITYGETGGNSPVQEFTVPIGKGTATISGLKPGVDYTITVYAVEYPWKGSGYYHRPISINYRTEIDKPSQHHHHHH
0.586

Also check 2382B10 (designed binder, Anti-PCSK9 Adnectin, His6-tagged) MGVSDVPRDLEVVAATPTSLLISWDAPADAYGYYRITYGETGGNSPVQEFTVPSSKGTATISGLKPGVDYTITVYAVEYDFPGSGYYHRPISINYRTEIDKPSQHHHHHH
2.35

Continue with the next binder.
So what's the measured Kd for this one? 2381F11 (designed binder, Anti-PCSK9 Adnectin, His6-tagged) MGVSDVPRDLEVVAATPTSLLISWDAPADGGYGYYRITYGETGGNSPVQEFTVPVSKSTATISGLKPGVDYTITVYAVEYTFPGAGYYHRPISINYRTEIDKPSQHHHHHH
1.59
